# targetUnderTest: T1, recombinant human FasR (Homo sapiens, UniProt P25445)
# T1 construct: Fas receptor (FasR, CD95), human, recombinant; The FasR of the BLI and SPR experiments; Details are in Supplementary Protocols 8-10; also called recombinant FasR
# T1 sequence (P25445 26-335): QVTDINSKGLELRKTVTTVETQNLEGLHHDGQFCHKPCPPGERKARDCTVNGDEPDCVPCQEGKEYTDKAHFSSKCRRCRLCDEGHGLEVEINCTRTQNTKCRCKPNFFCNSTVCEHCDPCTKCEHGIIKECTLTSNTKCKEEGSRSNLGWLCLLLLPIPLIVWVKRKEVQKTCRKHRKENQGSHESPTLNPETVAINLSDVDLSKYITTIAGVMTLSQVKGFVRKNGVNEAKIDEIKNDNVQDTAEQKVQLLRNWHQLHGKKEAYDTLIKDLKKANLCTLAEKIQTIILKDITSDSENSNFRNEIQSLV
# assayName: BLI; Octet Red384; recombinant human FasR; 1:1 Langmuir model; at least in duplicate; who was immobilised is not told (Supplementary Protocols 8-10)
# cond: both partners purified
Overview of recorded koff for various binders

binder	koff (s⁻¹)
R4aS IgG (antibody, V domains shown, numbers count on: Kabat numbering; IgG heavy constant region; light constant region; IgG; also called antibody R4aS) VH: QLQLQESGPGLVKPSETLSLTCTVPGASISANSYYGVWVRQSPGKGLEWVGSIAYRGNSNSGSTYYNPSLKSRATVSVDTSKNQVSLRLTSVTAADTALYYCARRQLLDDGTGYQWAAFDNWDQGTMVTVSS VL: QSVLTQPPSVSEAPRQTVTISCSGNSFNTGRYPVNWYQQLPGKAPKLLIYSNNLRLSGVSDRFSGSKSGTSASLAIRDLLSEDEADYYCSTWDDTLEGWVFGGGTKVTVL	1.2e-05
A05a scFv (scFv, V domains shown, numbers count on: Kabat numbering; scFv linker, as in m6; Most abundant variant of round IV; the same as the Clade 2 consensus R4aH; also called R4aH) VH: QLQLQESSPGLVKPSETLSITCTVPGASISANSYYGVWVRQSPGKGLEWVGSIAYRGNSNSGSTYYNPSLKSRATVSVDTSKNQVSLRLTSVTAADTALYYCARRQLLDDGTGYQWAAFDVWGQGTMVTVSS VL: QSVLTQPPSVSEAPRQTVTISCSGNSFNIGRYPVNWYQQLPGKAPKLLIYHNNLRFSGVSDRFSGSKSGTSASLAIRDLLSEDEADYYCSTWDDTLKGWVFGGGTKVTVL	0.00039
Ep6b_B01 IgG (antibody, V domains shown, numbers count on: Kabat numbering; IgG heavy constant region; light constant region; IgG) VH: QLQLQESGPGLVKPSETLSLTCTVSGASISANSYYGVWVRQSPGKGLEWVGSIAYRGNSNSGSTYYNPSLKSRATVSVDSSKNQVSLRLTSVTAADTALYYCARRQLLDDGTGYQWAAFDVWGQGTMVTVSS VL: QSVLTQPPSVSEAPRQTVTISCSGNSSNIGRYPVNWYQQLPGKAPKLLIYSDNLRFSGVPDRFSGSKSGTTASLAIRDLLSEDEADYYCSTWDDTLEGWVFGGGTKVTVL	5.9e-05
